These measurements were taken from PubChem BioAssay (NCI).

- Tested on: SK-MEL-2 melanoma
- ASSAY NAME: NCI-60 one-dose screen, 48 h (100 = growth as untreated, 0 = no growth, -100 = all killed)
- ASSAY CONDITIONS: 10 µM
Compounds without any hit were thinned out: in the full panel of roughly 83,000, 20% have a hit.
Output met for records whose growth is lower than 60%, not met for records at or above 60%.

Please review the following examples before continuing.
CC1(O)CCC2CC3OC3(C)CCC3OC3(C)CCC1C2(C)C (stereo not drawn) :: not met
COc1ccc(S(=O)(=O)Nc2c(/C=C\c3cc(OC)c(OC)c(OC)c3)ccc(OC)c2O)cc1 :: met
O=c1c2ccccc2nc(SCCN2CCCCC2)n1CCc1ccccc1 :: not met
c1ccc2c(c1)oc1c3cccnc3ccc21 :: not met
COc1ccc2nc3cc(Cl)ccc3c(NCCNCC(C)O)c2c1 (stereo not drawn) :: met

For NC(=O)CC1(c2ccccc2)CCCCC1 , is the recorded growth below the cut-off of 60%? not met

For N=C(N)c1ccc(-c2ccc(-c3cccs3)s2)s1 , is the recorded growth below the cut-off of 60%? met

For CC(C)=CCc1ccc(O)c(=O)cc1C(C)C , is the recorded growth below the cut-off of 60%? met

For O=C(NN1C(=O)CSC1c1ccc(Cl)cc1)c1cccnc1 (stereo not drawn) , is the recorded growth below the cut-off of 60%? not met

For O=C(Nc1cccc(Br)c1)c1cc(=O)[nH]c2ccccc12 , is the recorded growth below the cut-off of 60%? met

For CS(=O)(=O)Nc1cccc(-c2cc(-c3ccccc3Cl)c(C#N)c(N)n2)c1 , is the recorded growth below the cut-off of 60%? met

For O=[P@@]1(c2ccccc2)O[C@H](COCc2ccccc2)[C@@H](OCc2ccccc2)[C@H](OCc2ccccc2)[C@H]1O , is the recorded growth below the cut-off of 60%? not met

For COC(=O)C1(C)Cc2cc(OC(C)=O)c(OC(C)=O)cc2N1 (stereo not drawn) , is the recorded growth below the cut-off of 60%? not met

For COc1cccc(NC(=O)c2sc3nc4c(cc3c2N)C(O)CCC4)c1 (stereo not drawn) , is the recorded growth below the cut-off of 60%? met

For CCN1Cc2c(/C=C/c3ccccc3)nc3ccc(OC)cc3c2N(c2cccc(Cl)c2)C1 , is the recorded growth below the cut-off of 60%? not met

====

- System: SF-268 CNS
- ASSAY NAME: NCI-60 one-dose screen, 48 h (100 = growth as untreated, 0 = no growth, -100 = all killed)
- ASSAY CONDITIONS: 10 µM
The panel holds about 83,000 compounds, 20% with a hit somewhere; the sample as a whole holds those more often.
TEST READOUT: growth (%)
Express it in %; write the number only.

NC(=S)N=Nc1c(O)c2ccccc2c2ccccc12 :: 56.7
CC12O[C@H](C[C@@H](OC(=O)c3ccccc3)[C@H]1O)n1c3ccccc3c3c4c(c5c6ccccc6n2c5c31)C(=O)NC4=O :: 61.4

Briefly, growth measured for COc1ccc(NC(=O)CSc2nc3ccccc3c(=O)n2CCc2ccccc2)cc1 : 53.7

====

- Tested on: BT-549 breast
- ASSAY NAME: NCI-60 one-dose screen, 48 h (100 = growth as untreated, 0 = no growth, -100 = all killed)
- ASSAY CONDITIONS: 10 µM
About 83,000 compounds went through this panel and 20% of them were active in at least one assay; those are over-represented in the sample as a whole.
TEST READOUT: growth (%)
Express it in %; write the number only.

Consider the following illustrative entries.
O=C1/C(=C\c2ccc(F)cc2)CN(C(=O)c2ccc([N+](=O)[O-])cc2)C/C1=C\c1ccc(F)cc1 :: 5.36
Nc1ccc2c(c1)Cc1cc(N)c(Br)cc1-2 :: 94.4
O=C(O)CN1C(=O)c2cccc3cccc(c23)C1=O :: 104
COc1ccc2c(c1)/C(=C\c1c[nH]c3ccc(OC)cc13)C(=O)N2 :: 57.7

Now consider a different molecule.
Briefly, growth measured for Oc1[nH]c2cc(Cl)ccc2c1/C=c1/ccc2c(c1)N=C(c1cc(F)cc(F)c1)N=2 : 37.5

====

- Tested on: SF-539 CNS
- ASSAY NAME: NCI-60 one-dose screen, 48 h (100 = growth as untreated, 0 = no growth, -100 = all killed)
- ASSAY CONDITIONS: 10 µM
Compounds without any hit were thinned out: in the full panel of roughly 83,000, 20% have a hit.
Below: a set of entries, each annotated with reported growth.
Express it in %; write the number only.

Consider the following illustrative entries.
O=C(Nc1ccncc1)C(=O)c1cn(S(=O)(=O)c2cc(Cl)cc(Cl)c2)c2ccccc12 :: 61.7
CN(C)c1ccc(-c2cc(-c3cccc(NS(C)(=O)=O)c3)nc(N)c2C#N)cc1 :: 3.52
Clc1cccc(-c2nc(-c3cccs3)no2)c1 :: 92.6

Briefly, growth measured for CCN(CC)CCCOCCCNc1cc(OC)cc2cccnc12 : 108

Briefly, growth measured for Cc1cccc2c(NCCN(C)C)c3cccc(C(=O)NCCN(C)C)c3nc12 : 11.6

Briefly, growth measured for COc1ccc(/C=C/C(C)=N/OCC(=O)O)cc1 : 101

Briefly, growth measured for COc1ccc2c(c1)/C(=C\c1c[nH]c3ccc(OC)cc13)C(=O)N2 : 74.2

Briefly, growth measured for Nc1ccccc1NC(=O)CCCCC(=O)Nc1ccc2c(c1)/C(=C/c1ccc[nH]1)C(=O)N2 : 53.1

====

- Tested on: HT29 colon
- ASSAY NAME: NCI-60 one-dose screen, 48 h
- ASSAY CONDITIONS: 10 µM
About 83,000 compounds went through this panel and 20% of them were active in at least one assay; those are over-represented in the sample as a whole. Activity calls are given as the source filed them. How the source made its calls: active means growth percent below 10; inactive means the rest.
Answer with one of the outcomes active, inactive

Please review the following examples before continuing.
COc1ccc(OC)c(/C=C/c2nc(SCc3ccccc3)n(-c3ccc(Cl)cc3)n2)c1 :: inactive
O=C1OCC2=C1C(c1cccc(Cl)c1)c1cc3c(cc1N2CCO)CCC3 (centres undefined) :: active
CC(=O)n1c(-c2ccc(Cl)c(Cl)c2)cn(-c2ccc(Cl)cc2)c1=O :: inactive

Then there is this compound:
So what was the verdict on CC(C)=CCc1cc(O)cc2c1OC(C=C(C)C)C1=C2C(=O)C2=C(C1=O)S(=O)(=O)CCN2 (centres undefined) in this test? inactive

====

- System: UO-31 renal
- ASSAY NAME: NCI-60 one-dose screen, 48 h (100 = growth as untreated, 0 = no growth, -100 = all killed)
- ASSAY CONDITIONS: 10 µM
Compounds without any hit were thinned out: in the full panel of roughly 83,000, 20% have a hit.
Output yes for records whose growth is lower than 80%, no for records at or above 80%.

For CC(C)C[C@H](NC(=O)[C@H](Cc1cccc2ccccc12)NS(=O)(=O)c1cccc2cccnc12)B(O)O , is the recorded growth below the cut-off of 80%? yes

For O=C(Nc1cccc(Cl)c1)Nc1nccs1 , is the recorded growth below the cut-off of 80%? no

For COc1ccc(/C=C/C(C)=N/OCC(=O)O)cc1 , is the recorded growth below the cut-off of 80%? no

For CCCCCCCCCCCCCCCCN(C(C)c1ccccc1)S(=O)(=O)c1ccc(OC)c(N)c1 (centres undefined) , is the recorded growth below the cut-off of 80%? no

For COc1ccc2c(c1)C(=O)c1c-2c(OCCN(C)C)nc2ccccc12 , is the recorded growth below the cut-off of 80%? yes

====

Below: a set of entries, each annotated with reported growth.
- System: T-47D breast
- ASSAY NAME: NCI-60 one-dose screen, 48 h (100 = growth as untreated, 0 = no growth, -100 = all killed)
- ASSAY CONDITIONS: 10 µM
Compounds without any hit were thinned out: in the full panel of roughly 83,000, 20% have a hit.
Express it in %; write the number only.

Consider the following illustrative entries.
COc1cc(C2CC(c3ccc(Nc4ccnc5cc(Cl)ccc45)cc3)=NN2c2ccc(Cl)cc2)cc(OC)c1OC (configuration not stated) :: 41.3
CCCCCCCCCCCCCCCCN(C(C)c1ccccc1)S(=O)(=O)c1ccc(OC)c(N)c1 (configuration not stated) :: 113
Nc1ncnc2[nH]c(=O)[nH]c12 :: 94.2

Briefly, growth measured for O=[P@@]1(c2ccccc2)O[C@H](COCc2ccccc2)[C@@H](OCc2ccccc2)[C@H](OCc2ccccc2)[C@H]1O : 72.8

Briefly, growth measured for O=C(Nc1cccc(-n2cc(-c3ccncc3)c(-c3ccc(O)c(Cl)c3)n2)c1)Nc1cccc(C(F)(F)F)c1 : -23.6

Briefly, growth measured for COc1ccc(NC2=NC(C)(CO)CS2)cc1 (configuration not stated) : 101

Briefly, growth measured for COc1cc(-c2cc(/C=C3\C(=O)Nc4ccc(Cl)cc43)[nH]n2)cc(OC)c1OC : 24.8
